- TARGET_UNDER_TEST: Rap guanine nucleotide exchange factor 3 (Homo sapiens)
- MEASUREMENT_DESCRIPTION: Counterscreen qHTS for antagonist of cAMP-regulated guanine nucleotide exchange factor 3 (EPAC1) (AID 1645888);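 also: fluorescence loss as bound BODIPY-GDP is released from Rap1B; % of control where 0% means no effect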
- STUDY_CONDITIONS: Rap1B-BODIPY-GDP nucleotide exchange, fluorescence; series mostly up to 154 µM
Results filed as inconclusive are left out. Activity calls are given as the source filed them. Calls follow the shape of the dose curve; as a rule, active = well fitted inhibition curve with a large enough effect; inconclusive = small, poorly fitted or top-dose-only effect; inactive = no such curve, though single readings can be large or run the other way.
READOUT_KIND: activity change, negative = inhibition

compound=O=C(COc1ccc(Br)cc1Cl)c1ccc[nH]1 val=inactive
compound=O=C(O)CCNC(=O)c1ccc(NC(=O)C(c2ccccc2)c2ccccc2)cc1 val=inactive
compound=COC(=O)c1ccc(Cn2nc(-c3cc(C)ccc3C)ccc2=O)cc1 val=inactive
compound="O=C(Nc1ccccc1Cl)/C(Cl)=C(\\Cl)S(=O)c1ccccc1 (stereo unspecified)" val=inactive
compound="Cc1ccc(OCC(=O)OC(C)CN(C)Cc2ccccc2)cc1 (stereo unspecified)" val="8.78% [at 30.8 µM] (inactive)"
compound=CCOc1cc(/C=C(/C#N)c2ccc(Cl)cc2)cc(Cl)c1OCC(=O)O val="-8.72% [at 30.8 µM] (inactive)"
compound=Cn1ccc(=Nc2ccc(NC(=O)c3ccc(N=c4ccn(C)c5ccc([N+](=O)[O-])cc45)cc3)cc2)cc1 val=inactive
compound="CCOC(=O)C1Nc2c(F)cc(C)cc2C2c3ccccc3CC12 (stereo unspecified)" val=inactive
compound=Cc1ccc(NS(=O)(=O)c2cccc3cccnc23)c(Cl)c1 val=inactive
compound=CCOc1cc(CNc2ccc(O)cc2)cc(Cl)c1OCc1ccccc1 val=inactive
compound=CCCCNC(=O)c1cc(-c2ccc3c(c2)OCO3)on1 val=inactive
